System: MDA-MB-435
assay-protocol: NCI tumour cell line growth inhibition, 48 h
The source made the active and inactive calls. Rule as the data show it: active = GI50 up to about 1.1 µM and inactive = higher. Peptide text beside a SMILES is read from it. * marks the point of attachment. Boc = CC(C)(C)OC(=O)*
Labels: active, inactive

# molecule, label-class
measured = [
    ("CC(NC(=O)OC(C)(C)C)C(=O)NC(Cc1ccccc1)C(=O)NCC(=O)O (stereo not drawn) (Boc-Ala-Phe-Gly-OH; configuration not given here)", "inactive"),
    ("O=C(/C=C1/Nc2ccc([N+](=O)[O-])cc2N/C1=C/C(=O)c1ccc(Cl)cc1)c1ccc(Cl)cc1", "inactive"),
    ("COc1ccc(/C=C2\\CCCc3ccccc3C2=O)cc1", "active"),
    ("CNC(=O)OCC1=C(COC(=O)NC)CN(c2ccccc2)C1", "inactive"),
    ("CCCCCC(O)[C@H]1C(=O)C[C@@H](O[Si](C)(C)C(C)(C)C)[C@@H]1/C=C/CCOCc1ccccc1 (some centres undefined)", "inactive"),
    ("O=c1ssc2ncccc12", "inactive"),
    ("CCC(C(=O)C(=O)OC)P1(=O)OC(C)(C)CN1C(C)(C)C (centres undefined)", "inactive"),
    ("C/C(=C\\c1ccc(Cl)c(Cl)c1)[N+](=O)[O-]", "inactive"),
    ("CCOC(=O)c1sc2c(c1OC(=O)c1ccccc1)c(=O)n(-c1ccccc1)c(=S)n2-c1ccccc1", "inactive"),
]
